// provenance: ChEMBL document CHEMBL1129349

Molecular target: Human immunodeficiency virus type 1 integrase (Human immunodeficiency virus 1, UniProt Q7ZJM1)
Sequence (Q7ZJM1 whole entry): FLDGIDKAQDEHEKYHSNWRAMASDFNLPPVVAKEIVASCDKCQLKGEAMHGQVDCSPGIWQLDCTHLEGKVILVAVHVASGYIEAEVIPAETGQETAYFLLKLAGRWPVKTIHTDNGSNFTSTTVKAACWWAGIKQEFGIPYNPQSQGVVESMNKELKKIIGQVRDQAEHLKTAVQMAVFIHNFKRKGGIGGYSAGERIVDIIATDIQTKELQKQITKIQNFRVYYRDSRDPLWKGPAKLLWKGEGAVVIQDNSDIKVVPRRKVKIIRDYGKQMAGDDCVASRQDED
Assay: Inhibitory activity against HIV-1 integrase
The reader will find reported log10 of IC50 values listed item by item below.
endpoint: log10 of IC50 (log10 of the value in µM)

>>> value_measured("O=C1C(O)=C(C(C#Cc2ccccc2)C2=C(O)C(=O)c3ccccc3C2=O)C(=O)c2ccccc21")
1.86
>>> value_measured("O=C1C(=O)c2ccccc2C(O)=C1Cc1ccc(Cl)cc1")
1.75
>>> value_measured("O=C1Oc2ccccc2C(O)C1Sc1c(O)oc2ccccc2c1=O (stereo not given)")
2.00
>>> value_measured("O=C1C(O)=C(C(CCc2ccccc2)C2=C(O)C(=O)c3ccccc3C2=O)C(=O)c2ccccc21")
1.95
>>> value_measured("O=c1c(C(c2ccc(C(c3c(O)oc4ccccc4c3=O)c3c(O)oc4ccccc4c3=O)cc2)c2c(O)oc3ccccc3c2=O)c(O)oc2ccccc12")
-0.10
>>> value_measured("O=C1C(O)=C(C(C2=C(O)C(=O)c3ccccc3C2=O)c2ccccc2)C(=O)c2ccccc21")
1.68
>>> value_measured("O=C1C(O)=C(C(C2=C(O)C(=O)c3ccccc3C2=O)c2ccc(Cl)cc2Cl)C(=O)c2ccccc21")
1.60
>>> value_measured("O=c1c(C(c2ccc3c(c2)OCO3)c2c(O)oc3ccccc3c2=O)c(O)oc2ccccc12")
1.26
>>> value_measured("CC(=O)Nc1ccc(C(C2=C(O)C(=O)c3ccccc3C2=O)C2=C(O)C(=O)c3ccccc3C2=O)cc1")
1.89

###

Target: Human immunodeficiency virus type 1 integrase (Human immunodeficiency virus 1)
Assay: Inhibitory activity against HIV-1 integrase
endpoint: IC50 (µM)

>>> value_measured("O=c1c(C(c2ccc(C(c3c(O)oc4ccccc4c3=O)c3c(O)oc4ccccc4c3=O)cc2)c2c(O)oc3ccccc3c2=O)c(O)oc2ccccc12")
1.5
>>> value_measured("CCOC(=O)C(C1=C(O)C(=O)c2ccccc2C1=O)C1=C(O)C(=O)c2ccccc2C1=O")
92
>>> value_measured("O=C1C(O)=C(C(C2=C(O)C(=O)c3ccccc3C2=O)c2ccccc2)C(=O)c2ccccc21")
68
>>> value_measured("COc1cc(C(C2=C(O)C(=O)c3ccccc3C2=O)C2=C(O)C(=O)c3ccccc3C2=O)cc(Br)c1O")
32

###

Molecular target: Human immunodeficiency virus type 1 integrase (Human immunodeficiency virus 1)
Assay: Inhibitory activity against HIV-1 integrase
pIC50: −log10 of the molar value.
endpoint: pIC50

>>> value_measured("CN(C)c1ccc(C(C2=C(O)C(=O)c3ccccc3C2=O)C2=C(O)C(=O)c3ccccc3C2=O)cc1")
"< 4.00"
>>> value_measured("O=C1Oc2ccccc2C(O)C1Cc1c(O)oc2ccccc2c1=O (stereo not drawn)")
"< 4.00"
>>> value_measured("O=C1C(O)=C(C(C2=C(O)C(=O)c3ccccc3C2=O)c2ccc(C(C3=C(O)C(=O)c4ccccc4C3=O)C3=C(O)C(=O)c4ccccc4C3=O)cc2)C(=O)c2ccccc21")
5.12
>>> value_measured("O=C1C(=O)c2ccccc2C(O)=C1Sc1ccccc1")
"< 4.00"
>>> value_measured("O=C1C(=O)c2ccccc2C(O)=C1Cc1ccc(Cl)cc1")
4.04
>>> value_measured("O=C1C(=O)c2ccccc2C(O)=C1CCCC1CCC2CCCCC2C1 (stereo not drawn)")
"< 4.00"
>>> value_measured("O=C(c1cccc([N+](=O)[O-])c1)c1c(O)oc2ccccc2c1=O")
"< 4.00"
>>> value_measured("O=C(SCc1c(O)c2ccccc2oc1=O)c1ccccc1")
"< 4.00"
>>> value_measured("O=C1C(O)=C(C(C2=C(O)C(=O)c3ccccc3C2=O)c2ccc(Cl)cc2Cl)C(=O)c2ccccc21")
4.43
>>> value_measured("CC(C1=C(O)C(=O)c2ccccc2C1=O)C1=C(O)C(=O)c2ccccc2C1=O")
"< 4.00"
>>> value_measured("O=C1C(O)=C(C(C2=C(O)C(=O)c3ccccc3C2=O)c2ccc(Cl)cc2)C(=O)c2ccccc21")
"< 4.00"
>>> value_measured("O=C1C(O)=C(C(CCc2ccccc2)C2=C(O)C(=O)c3ccccc3C2=O)C(=O)c2ccccc21")
4.08
>>> value_measured("O=C(NC1=C(Cl)C(=O)c2ccccc2C1=O)C(=O)c1c(O)c2ccccc2oc1=O")
"< 4.00"
>>> value_measured("CCOc1ccc(C(C2=C(O)C(=O)c3ccccc3C2=O)C2=C(O)C(=O)c3ccccc3C2=O)cc1OC")
"< 4.00"
>>> value_measured("CCCCCCC/N=C1/C(=O)c2ccccc2C(O)=C1O")
"< 4.00"
>>> value_measured("CCOC(=O)C(c1c(O)c2ccccc2oc1=O)c1c(O)c2ccccc2oc1=O [ETHYL BISCOUMACETATE]")
"< 4.00"
>>> value_measured("CC(=O)c1cccc(NC(=O)C(=O)c2c(O)oc3ccccc3c2=O)c1")
"< 4.00"
>>> value_measured("O=c1oc2cccc(O)c2c(O)c1Cc1ccccc1")
"< 4.00"
>>> value_measured("O=C1Oc2ccccc2C(O)C1Sc1c(O)oc2ccccc2c1=O (stereo not drawn)")
4.10
>>> value_measured("CCCCCCc1cc2c(cc1O)OC(=O)C(C(c1ccccc1)c1c(O)oc3cc(O)c(CCCCCC)cc3c1=O)C2O (stereo not drawn)")
4.98
>>> value_measured("O=C1C(O)=C(C(C#Cc2ccccc2)C2=C(O)C(=O)c3ccccc3C2=O)C(=O)c2ccccc21")
"< 4.00"
>>> value_measured("CC(=O)Nc1ccc(C(C2=C(O)C(=O)c3ccccc3C2=O)C2=C(O)C(=O)c3ccccc3C2=O)cc1")
4.07
>>> value_measured("O=C(c1ccc(Cl)cc1)c1c(O)c2ccccc2oc1=O")
"< 4.00"
>>> value_measured("O=C1C(O)=C(C(C2=C(O)C(=O)c3ccccc3C2=O)c2ccc(Cl)c(Cl)c2)C(=O)c2ccccc21")
4.05
>>> value_measured("COc1ccc2c(O)c(S(=O)(=O)c3ccc(Cl)cc3)c(=O)oc2c1")
"< 4.00"
>>> value_measured("CC(C)c1cccc(C(C)C)c1NC(=O)C(=O)CC(=O)CC(c1ccccc1)c1c(O)oc2ccccc2c1=O (stereo not drawn)")
"< 4.00"
>>> value_measured("O=c1c(C(c2ccc3c(c2)OCO3)c2c(O)oc3ccccc3c2=O)c(O)oc2ccccc12")
4.33
>>> value_measured("O=c1oc2ccccc2c(O)c1-c1ccccc1")
"< 4.00"
